substances and their reported Count
Tested on: Human Nidogen-2
Assay: Phage display library screening (Example 2, Python script analysis), binding to Human Nidogen-2
Details: combined unique sequence count, Python/R script analysis
Procedure: Phage display library screens were used to identify peptides that bind to target proteins (including specific laminin trimers) that are expressed in human nerves, as described in Table 3. These screens were also carried out to identify peptides that could bind selectively to nerves versus muscle. Such peptides could therefore be useful for systemic in-vivo labeling of nerves during fluorescence assisted surgery. […]

# annotated cases, reported Count shown
Count of CSFKMNQKC (Nidogen-2-binding peptide) on Human Nidogen-2?
8

Count of HSRLPTP (Nidogen-2-binding peptide) on Human Nidogen-2?
13

Count of ALYLPGR (Nidogen-2-binding peptide) on Human Nidogen-2?
7

More entries:
Count of YNHTMMY (Nidogen-2-binding peptide) on Human Nidogen-2?
7

Count of CVDKMASVC (Nidogen-2-binding peptide) on Human Nidogen-2?
6

Count of CRSPHEPMC (Nidogen-2-binding peptide) on Human Nidogen-2?
6

Count of CYSAPTKSC (Nidogen-2-binding peptide) on Human Nidogen-2?
6

###

Test system: Laminin 421/521
Assay: Phage display library screening (Example 2), NEB laminin-binding peptides
Set-up: species or system human
Settings: Laminin 421/521, not 211 and 411; combined unique sequence count, Python/R script analysis
readout label: Count
Answer with a number only.

Could you tell me which Count is on file for KQELSDNLASHR (Laminin 421/521-binding peptide) ?
50

Could you tell me which Count is on file for HSTYAPG (Laminin 421/521-binding peptide) ?
33

Could you tell me which Count is on file for GSPEKRT (Laminin 421/521-binding peptide) ?
30

Could you tell me which Count is on file for CKWTQLWGC (Laminin 421/521-binding peptide) ?
40

Could you tell me which Count is on file for NGHEVQSRAANR (Laminin 421/521-binding peptide) ?
29

More entries:
Could you tell me which Count is on file for VPSYILR (Laminin 421/521-binding peptide) ?
30

Could you tell me which Count is on file for LPMLRHS (Laminin 421/521-binding peptide) ?
32

Could you tell me which Count is on file for CTWKHRDNC (Laminin 421/521-binding peptide) ?
30

Could you tell me which Count is on file for GPLLFRG (Laminin 421/521-binding peptide) ?
30

Could you tell me which Count is on file for HPAWADFFTMSS (Laminin 421/521-binding peptide) ?
29

Could you tell me which Count is on file for DRLTPITWDWSR (Laminin 421/521-binding peptide) ?
86

###

substances and their reported Count
Tested on: Human Myelin PLP
Experiment: Phage display library screening (Example 2, Python script analysis), binding to Human Myelin PLP
Details: combined unique sequence count, Python/R script analysis
Answer with a number only.

Could you tell me which Count is on file for TMPIKAM (Myelin PLP-binding peptide) ?
27

Could you tell me which Count is on file for LPLRLHA (Myelin PLP-binding peptide) ?
31

Could you tell me which Count is on file for WHYTPSM (Myelin PLP-binding peptide) ?
26

More entries:
Could you tell me which Count is on file for FSLDRDG (Myelin PLP-binding peptide) ?
29

Could you tell me which Count is on file for NIPSSIL (Myelin PLP-binding peptide) ?
33

Could you tell me which Count is on file for VGYRSAS (Myelin PLP-binding peptide) ?
28

Could you tell me which Count is on file for TLWAQKT (Myelin PLP-binding peptide) ?
28

Could you tell me which Count is on file for SLNRGGA (Myelin PLP-binding peptide) ?
28

Could you tell me which Count is on file for WSRISVD (Myelin PLP-binding peptide) ?
26

Could you tell me which Count is on file for LRFQIPP (R3 Myelin PLP-binding peptide) ?
44

###

System: excised human nerve tissue (or nerve extracts)
Test: Phage display library screening (Example 2), NEB tissue-binding peptides: nerve tissue and nerve extracts versus muscle
Conditions: unique sequence count, tissue target: neuron, peptides not binding muscle extracts
readout label: Count Neuron
Answer with a number only.

# annotated cases, reported Count Neuron shown
Could you tell me which Count Neuron is on file for `NAVHRPDLNLLA` ?
7

Could you tell me which Count Neuron is on file for `LQTHSITYRHER` ?
12

Could you tell me which Count Neuron is on file for `HGIVFSKRPFSN` ?
11

More entries:
Could you tell me which Count Neuron is on file for `NYAVGDRITKNI` ?
7

Could you tell me which Count Neuron is on file for `GHAHSLTQNPLF` ?
8

Could you tell me which Count Neuron is on file for `IPGQTPRMPHSK` ?
13

Could you tell me which Count Neuron is on file for `WVGPDIIAQMRI` ?
8

Could you tell me which Count Neuron is on file for `SDHTFKRVMFRW` ?
7

Could you tell me which Count Neuron is on file for `KTTSMTALTMGL` ?
12

Could you tell me which Count Neuron is on file for `WDVAWLERRALH` ?
20

Could you tell me which Count Neuron is on file for `MLKMERPGRMAY` ?
6

Could you tell me which Count Neuron is on file for `QANLYYWDPSDL` ?
9

Could you tell me which Count Neuron is on file for `NGMNWLQVHQLS` ?
6

Could you tell me which Count Neuron is on file for `GWANSITYRNLY` ?
9

Could you tell me which Count Neuron is on file for `EESNAKLELLSR` ?
14

Could you tell me which Count Neuron is on file for `NRIGHGTATGTL` ?
6

Could you tell me which Count Neuron is on file for `VTDMLGIPKLHA` ?
10

Could you tell me which Count Neuron is on file for `GWNEATNSARHT` ?
6

Could you tell me which Count Neuron is on file for `DELVGGAPWYKS` ?
7

Could you tell me which Count Neuron is on file for `AFRFEFQVPDSH` ?
11

Could you tell me which Count Neuron is on file for `TSAHHDRTLAGS` ?
6

###

sequences and their reported Count Nerve Extract
Tested on: excised human nerve tissue (or nerve extracts)
Experiment: Phage display library screening (Example 2), NEB tissue-binding peptides: nerve tissue and nerve extracts versus muscle
Conditions: unique sequence count, tissue target: nerve extract, peptides not binding muscle extracts
Experimental: Phage display library screens were used to identify peptides that bind to target proteins (including specific laminin trimers) that are expressed in human nerves, as described in Table 3. These screens were also carried out to identify peptides that could bind selectively to nerves versus muscle. Such peptides could therefore be useful for systemic in-vivo labeling of nerves during fluorescence assisted surgery. […]
Answer with a number only.

Could you tell me which Count Nerve Extract is on file for `WEKHTGPLSRYL` ?
19

Could you tell me which Count Nerve Extract is on file for `AFRFEFQVPDSH` ?
18

Could you tell me which Count Nerve Extract is on file for `NYAVGDRITKNI` ?
25

Could you tell me which Count Nerve Extract is on file for `NTEYSRYTSIWK` ?
14

Could you tell me which Count Nerve Extract is on file for `SLQLWNSEKVTT` ?
16

Could you tell me which Count Nerve Extract is on file for `QRATNDILIRGW` ?
17

Could you tell me which Count Nerve Extract is on file for `TEWMVRASSIGE` ?
14

Could you tell me which Count Nerve Extract is on file for `GTVSYMVKMDNN` ?
16

Could you tell me which Count Nerve Extract is on file for `WDVAWLERRALH` ?
43

Could you tell me which Count Nerve Extract is on file for `KTTSMTALTMGL` ?
21

Could you tell me which Count Nerve Extract is on file for `SSLYMNGWSRDQ` ?
49

Could you tell me which Count Nerve Extract is on file for `VPVPKKMSLDPT` ?
14

###

Target: Human Myelin Basic Protein (Homo sapiens, UniProt P02686)
Sequence (P02686 134-304): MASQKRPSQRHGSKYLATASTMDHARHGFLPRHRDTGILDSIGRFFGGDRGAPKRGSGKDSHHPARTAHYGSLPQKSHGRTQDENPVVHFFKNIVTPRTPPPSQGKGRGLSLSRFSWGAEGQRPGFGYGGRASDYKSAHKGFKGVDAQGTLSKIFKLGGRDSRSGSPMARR
Test: Phage display library screening (Example 1, Power BI analysis), binding to Human Myelin Basic Protein
Set-up: Enzo 200-606-M001 from human; purchased Enzo 200-606-M001; host or cells: human brain (tissue-derived)
Conditions: R3 Myelin Basic Protein, NextGen sequencing count of phage sequences distinct for this target
readout label: Count
Answer with a number only.

# annotated cases, reported Count shown
Count of AITSRNA (R3 Myelin Basic Protein-binding peptide) on Human Myelin Basic Protein (Homo sapiens, UniProt P02686)?
15

Count of LPMRILT (R3 Myelin Basic Protein-binding peptide) on Human Myelin Basic Protein (Homo sapiens, UniProt P02686)?
16

Count of HPSTWHK (R3 Myelin Basic Protein-binding peptide) on Human Myelin Basic Protein (Homo sapiens, UniProt P02686)?
18

Count of SVLRMLN (R3 Myelin Basic Protein-binding peptide) on Human Myelin Basic Protein (Homo sapiens, UniProt P02686)?
16

Count of NDTKTPS (R3 Myelin Basic Protein-binding peptide) on Human Myelin Basic Protein (Homo sapiens, UniProt P02686)?
19

Count of MQTQGRV (R3 Myelin Basic Protein-binding peptide) on Human Myelin Basic Protein (Homo sapiens, UniProt P02686)?
12

Count of WTMKPNY (R3 Myelin Basic Protein-binding peptide) on Human Myelin Basic Protein (Homo sapiens, UniProt P02686)?
13

Count of QIGVLPS (R3 Myelin Basic Protein-binding peptide) on Human Myelin Basic Protein (Homo sapiens, UniProt P02686)?
11

Count of LRPISHE (R3 Myelin Basic Protein-binding peptide) on Human Myelin Basic Protein (Homo sapiens, UniProt P02686)?
12

Count of HRLPWHH (R3 Myelin Basic Protein-binding peptide) on Human Myelin Basic Protein (Homo sapiens, UniProt P02686)?
10

More entries:
Count of ILLPSLN (R3 Myelin Basic Protein-binding peptide) on Human Myelin Basic Protein (Homo sapiens, UniProt P02686)?
13

Count of SKSDAWR (R3 Myelin Basic Protein-binding peptide) on Human Myelin Basic Protein (Homo sapiens, UniProt P02686)?
14

Count of DGKNTSN (R3 Myelin Basic Protein-binding peptide) on Human Myelin Basic Protein (Homo sapiens, UniProt P02686)?
10

Count of EHGYYKV (R3 Myelin Basic Protein-binding peptide) on Human Myelin Basic Protein (Homo sapiens, UniProt P02686)?
16

Count of AWSTSSV (R3 Myelin Basic Protein-binding peptide) on Human Myelin Basic Protein (Homo sapiens, UniProt P02686)?
12

# credit: patent US20240207421A1
